Measured values drawn from patent US10280101B2 for this set.

- MEASUREMENT_NOTES: Solubility/stability of CTA-acid salts in water
- Type: physicochemical
- EXPERIMENTAL_SETUP: CTA-acid dispersed in water at 1 wt. %, dissolved by adding the base/amine; solubility checked again after 48 hrs. at room temperature
ENDPOINT: Soluble

Known Soluble results, listed for orientation:
[
  {
    "MOLECULE_SMILES": "NCCOCCO",
    "Soluble": "yes"
  },
  {
    "MOLECULE_SMILES": "CC(C)CCCCCCCCCOCCCN",
    "Soluble": "no"
  },
  {
    "MOLECULE_SMILES": "NCCOCCOCCN",
    "Soluble": "no"
  },
  {
    "MOLECULE_SMILES": "O=C1CCCN1CCO",
    "Soluble": "no"
  }
]

// lookup Soluble for `NCCNCCO`
yes
